- Tested on: passive cutaneous anaphylaxis (PCA)
- assayName: Anti-passive cutaneous anaphylaxis activity (PCA) in rats (Test Example 9)
- Format: in vivo
- measurementContext: Rattus norvegicus, po; 50 mg/kg, 10 animals; read-out: Inhibition, Anti-serum Dilution: × 24

>  <molecule>
CC(C)OC(=O)c1ccccc1NC(=O)C(=Cc1ccccc1)C(=O)Nc1ccccc1C(=O)OC(C)C

>  <resultUnits>
%

>  <inhibition in vivo at 50 mg/kg>
23.9

$$$$
>  <molecule>
CCOC(=O)c1ccccc1NC(=O)C(=Cc1ccccc1)C(=O)Nc1ccccc1C(=O)OCC

>  <resultUnits>
%

>  <inhibition in vivo at 50 mg/kg>
40.5

$$$$
>  <molecule>
O=C(Nc1ccccc1C(=O)OC1OC(=O)c2ccccc21)C(=Cc1ccccc1)C(=O)Nc1ccccc1C(=O)OC1OC(=O)c2ccccc21 (centres unmarked)

>  <resultUnits>
%

>  <inhibition in vivo at 50 mg/kg>
58.4

$$$$
>  <molecule>
Cc1oc(=O)oc1COC(=O)c1ccccc1NC(=O)C(=Cc1ccccc1)C(=O)Nc1ccccc1C(=O)OCc1oc(=O)oc1C

>  <resultUnits>
%

>  <inhibition in vivo at 50 mg/kg>
62

$$$$
>  <molecule>
O=C(Nc1ccccc1C(=O)O)C(=Cc1ccccc1)C(=O)Nc1ccccc1C(=O)O

>  <resultUnits>
%

>  <inhibition in vivo at 50 mg/kg>
23

$$$$

Values compiled from patent US4822791A.
